- Target of assay: human Farnesoid X receptor ligand-binding domain/Gal4 DNA binding domain chimera (Homo sapiens (Human), UniProt Q96RI1)
- Sequence (Q96RI1 262-486, change not shown): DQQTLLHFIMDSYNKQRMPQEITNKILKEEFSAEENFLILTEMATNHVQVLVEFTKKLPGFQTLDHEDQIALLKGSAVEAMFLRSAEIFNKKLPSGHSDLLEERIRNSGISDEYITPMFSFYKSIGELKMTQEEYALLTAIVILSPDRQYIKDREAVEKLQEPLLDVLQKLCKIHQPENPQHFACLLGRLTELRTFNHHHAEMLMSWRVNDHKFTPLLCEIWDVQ
- Sequence (P04386 1-147 partner): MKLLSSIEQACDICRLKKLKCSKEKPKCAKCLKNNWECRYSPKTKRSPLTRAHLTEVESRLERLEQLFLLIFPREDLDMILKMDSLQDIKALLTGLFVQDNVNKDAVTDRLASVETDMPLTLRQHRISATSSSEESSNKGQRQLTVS
- Protocol notes: Cell-based assay of FXR activation (FXR-UAS-bla HEK 293T beta-lactamase reporter)
- Cond: HEK-293T; extent of activation relative to GW4064; cellular FXR beta-lactamase reporter assay; read-out: % Efficacy
- Experimental: FXR activation was measured using a cell line and procedure obtained from Life Technologies (Cat # K1691). FXR-UAS-bla HEK 293T cells contain a human Farnesoid X receptor ligand-binding domain/Gal4 DNA binding domain chimera stably integrated into the CellSensor® UAS-bla HEK 293T cell line. […] Activation of FXR by bound ligands results in transcriptional activation of the beta-lactamase reporter gene, which is detected via assay of beta-lactamase activity. […]
Below, each entry is listed with its recorded Emax.
Measured endpoint: Emax (%)

Compound	Unit label	Result value
N#Cc1cc(CCC(=O)O)ccc1N1C[C@@H]2C[C@H]1C[C@H]2OCc1c(-c2c(Cl)cccc2Cl)noc1C1CC1 [Compound I-158]	%	104
O=C(NS(=O)(=O)C1CC1)c1ccc(N2C[C@@H]3C[C@H]2C[C@H]3OCc2c(-c3c(Cl)cccc3Cl)noc2C2CC2)nc1 [Compound I-205]	%	104
O=C(CCc1ccc(N2C[C@@H]3C[C@H]2C[C@H]3OCc2c(-c3c(Cl)cccc3Cl)noc2C2CC2)c(F)c1)NS(=O)(=O)C1CCOCC1 [Compound I-238]	%	95
O=C(O)c1ccc(N2C(=O)[C@@H]3C[C@H]2C[C@H]3OCc2c(-c3c(F)cccc3Cl)noc2C2CC2)cc1 [Compound I-306]	%	108
O=C(O)c1ccc(N2C[C@@H]3C[C@H]2C[C@H]3OCc2c(C3CCC4(CC3)CC4)noc2C2CC2)c(F)c1 [Compound I-126]	%	106
O=C(NS(=O)(=O)C1CCCCC1)c1ccc(N2C[C@@H]3C[C@H]2C[C@H]3OCc2c(-c3c(Cl)cccc3Cl)noc2C2CC2)cc1 [Compound I-181]	%	110
O=C(NS(=O)(=O)CC1CCOC1)c1ccc(N2C(=O)[C@@H]3C[C@H]2C[C@H]3OCc2c(-c3c(Cl)cccc3Cl)noc2C2CC2)cc1 (stereo partly shown) [Compound I-341]	%	109
O=C(NS(=O)(=O)C1CC1)c1ccc(N2C[C@@H]3C[C@H]2C[C@H]3OCc2c(C3CCC4(CC3)CC4)noc2C2CC2)cc1 [Compound I-228]	%	105
O=C(O)c1cc(C2CCOCC2)c2nc(N3C[C@@H]4C[C@H]3C[C@H]4OCc3c(-c4c(Cl)cccc4Cl)noc3C3CC3)sc2c1 [Compound I-254]	%	106
CCCS(=O)(=O)NC(=O)c1cc(F)c2nc(N3C[C@@H]4C[C@H]3C[C@H]4OC(=O)c3c(-c4c(Cl)cccc4Cl)noc3C3CC3)sc2c1 [Compound I-32]	%	110
Cc1cccc(C)c1-c1noc(C2CC2)c1CO[C@@H]1C[C@@H]2C[C@H]1CN2c1ccc(C(=O)O)cc1 [Compound I-117]	%	100
COc1cc(Cl)c(-c2noc(C3CC3)c2CO[C@@H]2C[C@@H]3C[C@H]2CN3c2nc3c(F)cc(C(=O)O)cc3s2)c(Cl)c1 [Compound I-286]	%	108
O=C(O)c1cc(C2CCOCC2)c2nc(N3C[C@@H]4C[C@H]3C[C@H]4OCc3c(C4CCC5(CC4)CC5)noc3C3CC3)sc2c1 [Compound I-279]	%	104
O=C(O)CNC(=O)c1ccc(N2C[C@@H]3C[C@H]2C[C@H]3OCc2c(-c3c(Cl)cccc3Cl)noc2C2CC2)cc1F [Compound I-167]	%	106
O=C(O)c1cc(F)c2nc(N3C[C@@H]4C[C@H](OC(=O)c5c(-c6c(Cl)cccc6Cl)noc5C5CC5)[C@H]3C4)sc2c1 [Compound I-64]	%	55
Cc1cccc(F)c1-c1noc(C2CC2)c1CO[C@@H]1C[C@@H]2C[C@H]1C(=O)N2c1ccc(C(=O)O)cc1 [Compound I-307]	%	110
O=C(NS(=O)(=O)CCCO)c1ccc(N2C[C@@H]3C[C@H]2C[C@H]3OCc2c(-c3c(Cl)cccc3Cl)noc2C2CC2)cc1 [Compound I-215]	%	107
Cc1cc(C(=O)O)cc2sc(N3C[C@@H]4C[C@H]3C[C@H]4OCc3c(-c4c(Cl)cccc4Cl)noc3C3CC3)nc12 [Compound I-13]	%	116
CCCS(=O)(=O)NC(=O)c1ccc(N2C[C@@H]3C[C@H]2C[C@H]3OCc2c(-c3c(Cl)cccc3Cl)noc2C2(F)CC2)nc1 [Compound I-208]	%	104
O=C(O)c1cc(F)c2nc(N3C[C@@H]4C[C@H]3C[C@H]4OC(=O)c3c(-c4c(Cl)cccc4Cl)noc3C3CC3)sc2c1 [Compound I-1]	%	126
O=C(O)c1cc(F)c2nc(N3C[C@@H]4C[C@H]3C[C@H]4OCc3c(-c4ccccc4C(F)(F)F)noc3C3CC3)sc2c1 [Compound I-19]	%	114
O=C(O)c1cc(F)c2nc(N3C[C@@H]4C[C@H]3C[C@H]4OCc3c(-c4c(Cl)cccc4Cl)noc3C3CC3)sc2c1 [Compound I-12]	%	122
O=C(NCCS(=O)(=O)O)c1ccc(N2C[C@@H]3C[C@H]2C[C@H]3OCc2c(-c3c(Cl)cccc3Cl)noc2C2CC2)cc1 [Compound I-166]	%	114
CN(CC(=O)O)S(=O)(=O)c1ccc(N2C[C@@H]3C[C@H]2C[C@H]3OCc2c(-c3c(Cl)cccc3Cl)noc2C2CC2)cc1 [Compound I-143]	%	105
O=C(NCCS(=O)(=O)O)c1ccc(N2C(=O)[C@@H]3C[C@H]2C[C@H]3OCc2c(-c3c(Cl)cccc3Cl)noc2C2CC2)cc1 [Compound I-359]	%	126
